Data credit: ChEMBL document CHEMBL5291721

Target: Voltage-dependent L-type calcium channel subunit alpha-1C (Rattus norvegicus, UniProt P22002); also: assay procedure not described here
Sequence (P22002 whole entry): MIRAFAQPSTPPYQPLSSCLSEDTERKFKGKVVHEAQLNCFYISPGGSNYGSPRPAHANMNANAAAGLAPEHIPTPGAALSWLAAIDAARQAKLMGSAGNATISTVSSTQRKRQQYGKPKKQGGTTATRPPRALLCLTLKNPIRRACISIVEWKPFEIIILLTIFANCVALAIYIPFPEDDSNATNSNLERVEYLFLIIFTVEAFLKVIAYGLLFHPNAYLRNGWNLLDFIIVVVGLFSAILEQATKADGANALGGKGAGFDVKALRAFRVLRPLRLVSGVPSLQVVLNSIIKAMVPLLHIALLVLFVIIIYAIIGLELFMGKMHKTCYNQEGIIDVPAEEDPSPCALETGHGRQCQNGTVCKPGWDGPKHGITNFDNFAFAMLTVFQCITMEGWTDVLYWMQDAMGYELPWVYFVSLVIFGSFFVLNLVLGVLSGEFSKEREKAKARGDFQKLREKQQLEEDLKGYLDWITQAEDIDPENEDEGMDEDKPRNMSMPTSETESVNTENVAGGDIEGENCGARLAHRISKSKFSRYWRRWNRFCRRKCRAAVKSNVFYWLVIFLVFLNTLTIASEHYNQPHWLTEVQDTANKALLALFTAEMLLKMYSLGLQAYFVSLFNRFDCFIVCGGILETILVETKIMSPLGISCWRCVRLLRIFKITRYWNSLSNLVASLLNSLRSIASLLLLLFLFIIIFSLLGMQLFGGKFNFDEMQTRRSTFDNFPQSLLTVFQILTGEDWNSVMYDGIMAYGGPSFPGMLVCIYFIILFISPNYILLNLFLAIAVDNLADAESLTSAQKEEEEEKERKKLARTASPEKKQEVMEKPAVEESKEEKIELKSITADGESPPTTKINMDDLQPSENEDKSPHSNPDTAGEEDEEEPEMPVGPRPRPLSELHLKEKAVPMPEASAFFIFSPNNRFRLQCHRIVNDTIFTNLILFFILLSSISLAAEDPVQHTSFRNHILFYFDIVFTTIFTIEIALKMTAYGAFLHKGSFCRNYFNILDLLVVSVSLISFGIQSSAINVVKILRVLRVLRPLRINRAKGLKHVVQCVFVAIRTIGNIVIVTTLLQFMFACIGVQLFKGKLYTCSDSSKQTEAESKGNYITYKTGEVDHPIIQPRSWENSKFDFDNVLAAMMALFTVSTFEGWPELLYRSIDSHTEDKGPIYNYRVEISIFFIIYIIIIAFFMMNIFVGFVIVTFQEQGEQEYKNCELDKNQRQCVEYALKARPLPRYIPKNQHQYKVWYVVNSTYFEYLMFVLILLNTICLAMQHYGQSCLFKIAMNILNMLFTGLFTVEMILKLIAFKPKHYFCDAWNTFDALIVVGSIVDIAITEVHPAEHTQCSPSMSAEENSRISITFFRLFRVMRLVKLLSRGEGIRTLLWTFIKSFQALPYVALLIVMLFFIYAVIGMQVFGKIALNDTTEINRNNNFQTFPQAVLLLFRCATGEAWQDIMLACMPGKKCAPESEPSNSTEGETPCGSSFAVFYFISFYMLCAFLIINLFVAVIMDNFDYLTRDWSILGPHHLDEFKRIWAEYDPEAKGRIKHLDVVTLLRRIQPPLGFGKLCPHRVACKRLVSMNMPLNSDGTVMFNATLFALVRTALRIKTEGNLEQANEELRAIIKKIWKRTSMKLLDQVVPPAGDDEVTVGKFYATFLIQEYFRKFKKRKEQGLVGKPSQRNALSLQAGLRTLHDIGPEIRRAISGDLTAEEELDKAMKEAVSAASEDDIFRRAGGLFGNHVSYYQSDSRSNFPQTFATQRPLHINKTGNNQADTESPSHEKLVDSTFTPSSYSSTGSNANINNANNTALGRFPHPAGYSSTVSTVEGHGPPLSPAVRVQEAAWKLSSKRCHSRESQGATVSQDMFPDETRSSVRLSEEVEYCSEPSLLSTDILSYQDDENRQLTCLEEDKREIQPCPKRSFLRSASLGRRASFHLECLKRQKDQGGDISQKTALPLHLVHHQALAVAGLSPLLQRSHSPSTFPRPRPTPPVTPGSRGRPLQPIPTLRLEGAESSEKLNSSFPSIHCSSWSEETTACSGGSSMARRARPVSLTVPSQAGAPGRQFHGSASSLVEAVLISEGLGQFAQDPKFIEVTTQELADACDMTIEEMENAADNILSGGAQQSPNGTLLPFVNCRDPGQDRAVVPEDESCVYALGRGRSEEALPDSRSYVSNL
Assay type: functional
Entries and their measured AC50 follow.

Past entries and their recorded results:
>>> test_result("Clc1ccc(C(Cn2ccnc2)OCc2ccsc2Cl)c(Cl)c1 (centres undefined)")
"23 µM"
>>> test_result("CCC[C@H](NC(=O)[C@@H]1[C@H]2CCC[C@H]2CN1C(=O)[C@@H](NC(=O)[C@@H](NC(=O)c1cnccn1)C1CCCCC1)C(C)(C)C)C(=O)C(=O)NC1CC1")
"> 10 µM"
>>> test_result("Nc1ccc(S(=O)(=O)Nc2nccs2)cc1")
"> 10 µM"
>>> test_result("Cc1noc(NS(=O)(=O)c2ccc(N)cc2)c1C")
"> 10 µM"

Request: Bench note: what AC50 did O=C1CN=C(c2ccccc2)c2cc([N+](=O)[O-])ccc2N1 show?
Response: > 10 µM

Request: // query AC50 value for entry COc1ccccc1Oc1c(NS(=O)(=O)c2ccc(C(C)(C)C)cc2)nc(-c2ncccn2)nc1OCCO
Response: > 10 µM

Request: Report AC50 for Nc1ncn([C@H]2C[C@H](O)[C@@H](CO)O2)c(=O)n1 please.
Response: > 30 µM

Request: Recorded AC50 for CCN(CC)CCNC(=O)c1c(C)[nH]c(/C=C2\C(=O)Nc3ccc(F)cc32)c1C , please?
Response: > 30 µM

Request: Which value of AC50 has been reported for Cc1onc(-c2ccccc2)c1-c1ccc(S(N)(=O)=O)cc1 in the records?
Response: > 10 µM
